Tested on: Trichoderma virens ATCC 9645
Test: growth yield (OD600) with compound + IPBC relative to untreated control; higher = less growth inhibition
Conditions: compound concentration: 100 uM; IPBC concentration: 200 ng/ml; 40 h
Where a name gives a salt, the structure may show the parent alone. About 130 (10%) of roughly 1,300 compounds showed an effect of 50% or more. The sample as a whole holds a higher share of strong results than the screen did.
Decide using growth yield: a value greater than or equal to 80% is Satisfied, a smaller one is Not satisfied.

Is growth yield for OCCN1CCN(CCCN2c3ccccc3Sc3ccc(C(F)(F)F)cc32)CC1 [Fluphenazine dihydrochloride] + CCCCNC(=O)OCC#CI [3-iodo-2-propynyl butylcarbamate (IPBC)] at or above 80%?
Not satisfied

Next entry: CC(=O)c1ccc2c(c1)N(CCCN1CCC(CCO)CC1)c1ccccc1S2 [Piperacetazine] + CCCCNC(=O)OCC#CI [3-iodo-2-propynyl butylcarbamate (IPBC)]
Not satisfied

Try this compound next: O=C(Nc1ccc([N+](=O)[O-])cc1Cl)c1cc(Cl)ccc1O [Niclosamide] + CCCCNC(=O)OCC#CI [3-iodo-2-propynyl butylcarbamate (IPBC)]
Satisfied

Next up: CC(C)[C@H](N)C(=O)OCCOCn1cnc2c(=O)nc(N)[nH]c21 [Valacyclovir hydrochloride] + CCCCNC(=O)OCC#CI [3-iodo-2-propynyl butylcarbamate (IPBC)]
Satisfied

Request: CC(N)C(O)c1ccccc1 (stereo not given) [Phenylpropanolamine hydrochloride] + CCCCNC(=O)OCC#CI [3-iodo-2-propynyl butylcarbamate (IPBC)]
Satisfied

====

System: Trichoderma virens ATCC 9645
Test: growth yield (OD600) with compound + IPBC relative to untreated control; higher = less growth inhibition
Conditions: compound concentration: 100 uM; IPBC concentration: 200 ng/ml; 72 h
The campaign covered roughly 1,300 compounds. About 130 (10%) showed an effect of 50% or more. The sample as a whole holds a higher share of strong results than the screen did.
Values of growth yield greater than or equal to 90% map to met; values below map to not met.

Worked examples follow.
CCC(=O)O[C@@H](O[P@](=O)(CCCCc1ccccc1)CC(=O)N1C[C@H](C2CCCCC2)C[C@H]1C(=O)O)C(C)C [Fosinopril] + CCCCNC(=O)OCC#CI [3-iodo-2-propynyl butylcarbamate (IPBC)]; met
C[C@]12C=CC(=O)C=C1CC[C@H]1[C@@H]3C[C@@H](O)[C@](O)(C(=O)CO)[C@@]3(C)C[C@H](O)[C@@]12F [Triamcinolone] + CCCCNC(=O)OCC#CI [3-iodo-2-propynyl butylcarbamate (IPBC)]; met

Next up:
Assess whether reported growth yield for O=C(O)c1cccnc1Nc1cccc(C(F)(F)F)c1 [Niflumic acid] + CCCCNC(=O)OCC#CI [3-iodo-2-propynyl butylcarbamate (IPBC)] sits at 90% or higher.
not met

====

Tested on: Trichoderma virens ATCC 9645
Assay: growth yield (OD600) with compound + IPBC relative to untreated control; higher = less growth inhibition
Details: compound concentration: 100 uM; IPBC concentration: 200 ng/ml; 40 h
Structures can show the parent of a compound that is named as a salt. In all, about 1,300 compounds went through this assay and about 130 (10%) showed an effect of 50% or more. The sample as a whole holds a higher share of strong results than the screen did.
Provide the reported growth yield of each item.
One number for each entry, in %.

// below: answered compounds
N#Cc1ccc(C(c2ccc(C#N)cc2)n2cncn2)cc1 [Letrozole] + CCCCNC(=O)OCC#CI [3-iodo-2-propynyl butylcarbamate (IPBC)]; 98.6
CC(=O)OCC(=O)[C@@]1(O)CC[C@H]2[C@@H]3CCC4=CC(=O)C=C[C@]4(C)[C@@]3(F)[C@@H](O)C[C@@]21C [Isoflupredone acetate] + CCCCNC(=O)OCC#CI [3-iodo-2-propynyl butylcarbamate (IPBC)]; 87.8
CNC(C)CCC=C(C)C (stereo unspecified) [Isometheptene mucate] + CCCCNC(=O)OCC#CI [3-iodo-2-propynyl butylcarbamate (IPBC)]; 101

For each of the items listed, what is its growth yield?
1. CC(C)(C)NC[C@H](O)c1ccc(O)c(CO)c1 [Levalbuterol hydrochloride] + CCCCNC(=O)OCC#CI [3-iodo-2-propynyl butylcarbamate (IPBC)]
2. CCCN(CCC)CCc1cccc2c1CC(=O)N2 [Ropinirole hydrochloride] + CCCCNC(=O)OCC#CI [3-iodo-2-propynyl butylcarbamate (IPBC)]

1. 86.2
2. 84.8

For each of the compounds below, state growth yield.
1. CN(C)[C@@H]1C(O)=C(C(N)=O)C(=O)[C@@]2(O)C(O)=C3C(=O)c4c(O)cccc4[C@@](C)(O)[C@H]3C[C@@H]12 [Tetracycline hydrochloride] + CCCCNC(=O)OCC#CI [3-iodo-2-propynyl butylcarbamate (IPBC)]
2. C=C1c2cccc(O)c2C(=O)C2=C(O)[C@]3(O)C(=O)C(C(N)=O)=C(O)[C@@H](N(C)C)[C@@H]3[C@@H](O)[C@H]12 [Methacycline hydrochloride] + CCCCNC(=O)OCC#CI [3-iodo-2-propynyl butylcarbamate (IPBC)]
3. NNc1nncc2ccccc12 [Hydralazine hydrochloride] + CCCCNC(=O)OCC#CI [3-iodo-2-propynyl butylcarbamate (IPBC)]
4. Oc1c(Cl)cc(Cl)c(Cl)c1Cc1c(O)c(Cl)cc(Cl)c1Cl [Hexachlorophene] + CCCCNC(=O)OCC#CI [3-iodo-2-propynyl butylcarbamate (IPBC)]

[99.3, 94.2, 120, 19.4]

Each compound below has a recorded value; state its growth yield.
1. Cn1c(=O)c2c(ncn2CC(=O)O)n(C)c1=O [Acefylline] + CCCCNC(=O)OCC#CI [3-iodo-2-propynyl butylcarbamate (IPBC)]
2. CC=CC(=O)N(CC)c1ccccc1C [Crotamiton] + CCCCNC(=O)OCC#CI [3-iodo-2-propynyl butylcarbamate (IPBC)]
3. Cc1c(N(C)CS(=O)(=O)O)c(=O)n(-c2ccccc2)n1C [Dipyrone] + CCCCNC(=O)OCC#CI [3-iodo-2-propynyl butylcarbamate (IPBC)]
4. N=C(N)NS(=O)(=O)c1ccc(N)cc1 [Sulfaguanidine] + CCCCNC(=O)OCC#CI [3-iodo-2-propynyl butylcarbamate (IPBC)]
5. COC1=C(OC)C(=O)C(CCCCCCCCCCO)=C(C)C1=O [Idebenone] + CCCCNC(=O)OCC#CI [3-iodo-2-propynyl butylcarbamate (IPBC)]
6. Nc1nc(=O)[nH]cc1F [Flucytosine] + CCCCNC(=O)OCC#CI [3-iodo-2-propynyl butylcarbamate (IPBC)]

[90.1, 98.8, 92.4, 89.6, 49.1, 88.5]

Respectfully, I request growth yield for each entry included below.
1. CC(C)(C)NCC(O)c1ccc(O)c(CO)c1 (stereo unspecified) [Salbutamol] + CCCCNC(=O)OCC#CI [3-iodo-2-propynyl butylcarbamate (IPBC)]
2. CC(NC(C)(C)C)C(=O)c1cccc(Cl)c1 (stereo unspecified) [Bupropion hydrochloride] + CCCCNC(=O)OCC#CI [3-iodo-2-propynyl butylcarbamate (IPBC)]
3. CCCOc1ccccc1-c1nc2[nH]nnc2c(=O)[nH]1 [Zaprinast] + CCCCNC(=O)OCC#CI [3-iodo-2-propynyl butylcarbamate (IPBC)]
4. C[N+]12CCC(CC1)C(OC(=O)C(O)(c1ccccc1)c1ccccc1)C2 (stereo unspecified) [Clidinium bromide] + CCCCNC(=O)OCC#CI [3-iodo-2-propynyl butylcarbamate (IPBC)]
5. CN(C)[C@@H]1C(O)=C(C(N)=O)C(=O)[C@@]2(O)C(O)=C3C(=O)c4c(O)ccc(Cl)c4[C@@H](O)[C@H]3C[C@@H]12 [Demeclocycline hydrochloride] + CCCCNC(=O)OCC#CI [3-iodo-2-propynyl butylcarbamate (IPBC)]

85.9
92.1
87.2
95.8
68.8

Item under review: COc1ccc(Cl)cc1C(=O)NCCc1ccc(S(=O)(=O)NC(=O)NC2CCCCC2)cc1 [Glibenclamide] + CCCCNC(=O)OCC#CI [3-iodo-2-propynyl butylcarbamate (IPBC)] . Reported growth yield?
101

src = the supplement of paper PMC8007513
